Tested on: FLT3(R834Q)
assay_details: KINOMEscan kinase binding assay
cond: at 1 μM
parameter_measured: % Ctrl
State the value, then name its unit.

Input: Missing value: % Ctrl, FLT3(R834Q), entry Cc1cc2c([nH]1)/C=C1\C(=O)Nc3ccc(cc31)-c1c(nn(C)c1C)COCCN(C)C2=O [Cpd. 2] . Fill in?
Output: 50%

Input: Missing value: % Ctrl, FLT3(R834Q), entry Cc1cc2c([nH]1)/C=C1\C(=O)Nc3ccc(cc31)-c1c(nn(C)c1C)OCCCN(C)C2=O [Cpd. 1] . Fill in?
Output: 97%

Input: Missing value: % Ctrl, FLT3(R834Q), entry C[C@@H]1COCc2nn(C)cc2-c2cc(Cl)c3c(c2)/C(=C/c2[nH]ccc2C(=O)N1)C(=O)N3 [Cpd. 4] . Fill in?
Output: 100%

Input: Missing value: % Ctrl, FLT3(R834Q), entry Cc1cc2c([nH]1)/C=C1\C(=O)Nc3c(Cl)cc(cc31)-c1cn(C)nc1COC[C@@H](C)NC2=O [Cpd. 3] . Fill in?
Output: 100%

Input: Missing value: % Ctrl, FLT3(R834Q), entry Cc1cc2c([nH]1)/C=C1\C(=O)Nc3c(Cl)cc(cc31)-c1cn(C)nc1COC[C@@H](C)N(C)C2=O [Cpd. 5] . Fill in?
Output: 98%

* * *

Tested on: MERTK
assay_details: KINOMEscan kinase binding assay
cond: at 1 μM
Binarize % Ctrl at 90%; below is MET, at or above is NOT MET.

Input: Determine if C[C@@H]1COCc2nn(C)cc2-c2cc(Cl)c3c(c2)/C(=C/c2[nH]ccc2C(=O)N1)C(=O)N3 [Cpd. 4] shows % Ctrl strictly lower than 90%.
Output: MET

Input: Determine if Cc1cc2c([nH]1)/C=C1\C(=O)Nc3ccc(cc31)-c1c(nn(C)c1C)OCCCN(C)C2=O [Cpd. 1] shows % Ctrl strictly lower than 90%.
Output: MET

Input: Determine if Cc1cc2c([nH]1)/C=C1\C(=O)Nc3ccc(cc31)-c1c(nn(C)c1C)COCCN(C)C2=O [Cpd. 2] shows % Ctrl strictly lower than 90%.
Output: NOT MET

Input: Determine if Cc1cc2c([nH]1)/C=C1\C(=O)Nc3c(Cl)cc(cc31)-c1cn(C)nc1COC[C@@H](C)N(C)C2=O [Cpd. 5] shows % Ctrl strictly lower than 90%.
Output: MET

Input: Determine if Cc1cc2c([nH]1)/C=C1\C(=O)Nc3c(Cl)cc(cc31)-c1cn(C)nc1COC[C@@H](C)NC2=O [Cpd. 3] shows % Ctrl strictly lower than 90%.
Output: NOT MET

* * *

Tested on: EPHA2
assay_details: KINOMEscan kinase binding assay
cond: at 1 μM
parameter_measured: % Ctrl (%)
Number only, in %; omit the unit.

Input: For the compound shown here, Cc1cc2c([nH]1)/C=C1\C(=O)Nc3c(Cl)cc(cc31)-c1cn(C)nc1COC[C@@H](C)NC2=O , give the reported % Ctrl.
Output: 93

Input: For the compound shown here, Cc1cc2c([nH]1)/C=C1\C(=O)Nc3ccc(cc31)-c1c(nn(C)c1C)COCCN(C)C2=O , give the reported % Ctrl.
Output: 85

Input: For the compound shown here, Cc1cc2c([nH]1)/C=C1\C(=O)Nc3c(Cl)cc(cc31)-c1cn(C)nc1COC[C@@H](C)N(C)C2=O , give the reported % Ctrl.
Output: 100

Input: For the compound shown here, C[C@@H]1COCc2nn(C)cc2-c2cc(Cl)c3c(c2)/C(=C/c2[nH]ccc2C(=O)N1)C(=O)N3 , give the reported % Ctrl.
Output: 96

Input: For the compound shown here, Cc1cc2c([nH]1)/C=C1\C(=O)Nc3ccc(cc31)-c1c(nn(C)c1C)OCCCN(C)C2=O , give the reported % Ctrl.
Output: 97

* * *

What % Ctrl was measured for each of the following?
Tested on: ZAP70
assay_details: KINOMEscan kinase binding assay
cond: at 1 μM
Number only, in %; omit the unit.

Input: Missing value: % Ctrl, ZAP70, entry Cc1cc2c([nH]1)/C=C1\C(=O)Nc3ccc(cc31)-c1c(nn(C)c1C)OCCCN(C)C2=O . Fill in?
Output: 94

Input: Missing value: % Ctrl, ZAP70, entry C[C@@H]1COCc2nn(C)cc2-c2cc(Cl)c3c(c2)/C(=C/c2[nH]ccc2C(=O)N1)C(=O)N3 . Fill in?
Output: 56

Input: Missing value: % Ctrl, ZAP70, entry Cc1cc2c([nH]1)/C=C1\C(=O)Nc3ccc(cc31)-c1c(nn(C)c1C)COCCN(C)C2=O . Fill in?
Output: 96

Input: Missing value: % Ctrl, ZAP70, entry Cc1cc2c([nH]1)/C=C1\C(=O)Nc3c(Cl)cc(cc31)-c1cn(C)nc1COC[C@@H](C)NC2=O . Fill in?
Output: 55

Input: Missing value: % Ctrl, ZAP70, entry Cc1cc2c([nH]1)/C=C1\C(=O)Nc3c(Cl)cc(cc31)-c1cn(C)nc1COC[C@@H](C)N(C)C2=O . Fill in?
Output: 63

* * *

System: ABL1(M351T)-phosphorylated
assay_details: KINOMEscan kinase binding assay
cond: at 1 μM
parameter_measured: % Ctrl
State the value, then name its unit.

Input: For the compound shown here, C[C@@H]1COCc2nn(C)cc2-c2cc(Cl)c3c(c2)/C(=C/c2[nH]ccc2C(=O)N1)C(=O)N3 , give the reported % Ctrl.
Output: 94%

Input: For the compound shown here, Cc1cc2c([nH]1)/C=C1\C(=O)Nc3c(Cl)cc(cc31)-c1cn(C)nc1COC[C@@H](C)NC2=O , give the reported % Ctrl.
Output: 99%

Input: For the compound shown here, Cc1cc2c([nH]1)/C=C1\C(=O)Nc3ccc(cc31)-c1c(nn(C)c1C)COCCN(C)C2=O , give the reported % Ctrl.
Output: 57%

Input: For the compound shown here, Cc1cc2c([nH]1)/C=C1\C(=O)Nc3c(Cl)cc(cc31)-c1cn(C)nc1COC[C@@H](C)N(C)C2=O , give the reported % Ctrl.
Output: 94%

Input: For the compound shown here, Cc1cc2c([nH]1)/C=C1\C(=O)Nc3ccc(cc31)-c1c(nn(C)c1C)OCCCN(C)C2=O , give the reported % Ctrl.
Output: 100%

* * *

Test system: KIT(L576P)
assay_details: KINOMEscan kinase binding assay
cond: at 1 μM
parameter_measured: % Ctrl (%)
Number only, in %; omit the unit.

Input: For the compound shown here, Cc1cc2c([nH]1)/C=C1\C(=O)Nc3c(Cl)cc(cc31)-c1cn(C)nc1COC[C@@H](C)N(C)C2=O , give the reported % Ctrl.
Output: 97

Input: For the compound shown here, Cc1cc2c([nH]1)/C=C1\C(=O)Nc3c(Cl)cc(cc31)-c1cn(C)nc1COC[C@@H](C)NC2=O , give the reported % Ctrl.
Output: 100

Input: For the compound shown here, Cc1cc2c([nH]1)/C=C1\C(=O)Nc3ccc(cc31)-c1c(nn(C)c1C)COCCN(C)C2=O , give the reported % Ctrl.
Output: 100

Input: For the compound shown here, C[C@@H]1COCc2nn(C)cc2-c2cc(Cl)c3c(c2)/C(=C/c2[nH]ccc2C(=O)N1)C(=O)N3 , give the reported % Ctrl.
Output: 100

Input: For the compound shown here, Cc1cc2c([nH]1)/C=C1\C(=O)Nc3ccc(cc31)-c1c(nn(C)c1C)OCCCN(C)C2=O , give the reported % Ctrl.
Output: 88

* * *

Test system: TYK2(JH2domain-pseudokinase)
assay_details: KINOMEscan kinase binding assay
cond: TYK2(JH2domain-pseudokinase); at 1 μM
Description: Kinase binding assays were performed at Eurofins/DiscoveRx using the general KINOMEscan Protocol (Fabian, M. A. et al., “A small molecule-kinase interaction map for clinical kinase inhibitors,” Nat. Biotechnol. 2005, 23(3):329-36). […] The kinase concentration in the eluates was measured by qPCR. […] Dissociation constants (Kds) for test compound-kinase interactions were calculated by measuring the amount of kinase captured on the solid support as a function of the test compound concentration.
What % Ctrl was measured for each of the following?
Number only, in %; omit the unit.

Input: For the molecule shown here, Cc1cc2c([nH]1)/C=C1\C(=O)Nc3ccc(cc31)-c1c(nn(C)c1C)OCCCN(C)C2=O [Cpd. 1] , give the reported % Ctrl.
Output: 1.5

Input: For the molecule shown here, C[C@@H]1COCc2nn(C)cc2-c2cc(Cl)c3c(c2)/C(=C/c2[nH]ccc2C(=O)N1)C(=O)N3 [Cpd. 4] , give the reported % Ctrl.
Output: 0.2

Input: For the molecule shown here, Cc1cc2c([nH]1)/C=C1\C(=O)Nc3c(Cl)cc(cc31)-c1cn(C)nc1COC[C@@H](C)NC2=O [Cpd. 3] , give the reported % Ctrl.
Output: 0

Input: For the molecule shown here, Cc1cc2c([nH]1)/C=C1\C(=O)Nc3ccc(cc31)-c1c(nn(C)c1C)COCCN(C)C2=O [Cpd. 2] , give the reported % Ctrl.
Output: 0.6

Input: For the molecule shown here, Cc1cc2c([nH]1)/C=C1\C(=O)Nc3c(Cl)cc(cc31)-c1cn(C)nc1COC[C@@H](C)N(C)C2=O [Cpd. 5] , give the reported % Ctrl.
Output: 0
